Numbers sourced from PubChem BioAssay (Tox21).

- Assay Explanation: qHTS assay to identify small molecule antagonists of the peroxisome proliferator-activated receptor delta (PPARd) signaling pathway - cell viability counter screen (AID 743213); further: nearly all actives have a fitted effect of over 50% in size
- Condition Set: PPARd-bla HEK293H viability, CellTiter-Glo luminescence, 17 h; series mostly up to 62 µM
Inconclusive results are not listed. The source made the active and inactive calls. The call rests on the fitted dose curve; in most records, active means well fitted cell-killing curve with a large enough effect in the repeat runs; inconclusive means weak or mixed curves; inactive means no such curve, though single readings can be large or run the other way.
Recorded Endpoint: outcome

Please review the entries below; each comes with its answer.
Molecule	Result
NCC(=O)O	inactive
CCCCCC[C@@H](O)C/C=C\CCCCCCCC(=O)OC	inactive
CCOC(=O)C(=O)CCc1ccccc1	inactive
CCCCc1ncc(/C=C(\Cc2cccs2)C(=O)O)n1Cc1ccc(C(=O)O)cc1	inactive
CC(COCCO)OCCO (stereo not drawn)	inactive

Please give the documented outcome of CC1(c2ccccc2)OC(C(=O)O)=CC1=O (stereo not drawn)
inactive

Please give the documented outcome of OCCNCc1ccccc1
inactive

Please give the documented outcome of COc1ccc(C)cc1[N+](=O)[O-]
inactive
